# measured-target: T1, human PVRIG on cells (human, UniProt Q6DKI7 1-326)
# T1 construct: whole, on cells; over-expressed on HEK cells or endogenous on Jurkat and CD8 T cells; also called hPVRIG; HEK hPVRIG cells
# T1 sequence (looked up): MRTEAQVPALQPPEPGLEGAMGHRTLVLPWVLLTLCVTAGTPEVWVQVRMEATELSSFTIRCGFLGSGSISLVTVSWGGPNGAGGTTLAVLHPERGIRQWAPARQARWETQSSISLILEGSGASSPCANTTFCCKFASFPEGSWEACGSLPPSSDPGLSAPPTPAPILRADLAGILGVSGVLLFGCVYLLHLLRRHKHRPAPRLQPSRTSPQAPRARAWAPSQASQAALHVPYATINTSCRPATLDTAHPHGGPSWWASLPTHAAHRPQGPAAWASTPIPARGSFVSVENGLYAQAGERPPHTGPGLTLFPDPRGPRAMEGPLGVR
# experimental-details: FACS, human PBMC, CD56 int. NK cells, 10ug/ml
outcome-measure: gMFIr Human CD56 int. NK
# respond with the number and nothing more

Observe how each entry below is paired with its result.
binder | gMFIr Human CD56 int. NK
CHA.7.549 (antibody, V domains shown) VH: QVQLQQPGTELVKPGASVKLSCKASGFTFTTHWMHWVRQRPGQGLEWIGNIYPSNGGSNYNEKFKTKATLTVDRSSSTAYMHLSSLTSEDSAVYYCARRVNWDGYYFDYWGQGTTLTVSS VL: DIVMTQSQKFMSTSVGDRVSVTCKASQNVGTNVAWYQQKPGQSPKLLIYSASYRYSGVPDRFTGSGSGTDFTLTISNVQSEDLADYFCQQYNSYPLTFGGGTKLEIK | 3.05
CHA.7.528 (antibody, V domains shown) VH: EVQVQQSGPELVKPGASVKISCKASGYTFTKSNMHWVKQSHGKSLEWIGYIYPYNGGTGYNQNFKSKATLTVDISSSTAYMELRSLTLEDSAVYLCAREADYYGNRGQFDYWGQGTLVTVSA VL: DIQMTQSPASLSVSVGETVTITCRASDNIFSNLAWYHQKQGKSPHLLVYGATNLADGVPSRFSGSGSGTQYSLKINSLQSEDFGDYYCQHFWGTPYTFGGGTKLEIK | 3.08

What value of gMFIr Human CD56 int. NK has been recorded for this entry: CHA.7.550 (antibody, V domains shown) VH: QVQLQESGTELVKPGASVKLSCKASGYTFTSYWIHWVKQRPGQGLEWIGNINPSNGGTNYNEKFKSKAALTVDKSSSTAYMQLSSLTSEDSAVYYCARRGLPYFFDYWGQGTTLTVSS VL: DIVMTQSQKFMSTSVGDRVSVTCKGSQNVGYNVAWYQQKPGQSPKALVYSASDRHSGVPDRFAGSGSGTDFTLTISNVQSEDLAEYFCQQYNSYPLTFGAGTKLELK
1.6
